# Test system: SK-OV-3 ovarian
# Procedure Text: NCI-60 one-dose screen, 48 h
# Protocol Conditions: 10 µM unless noted
Compounds without any hit were thinned out: in the full panel of roughly 83,000, 20% have a hit. Calls of active or inactive are those of the source. Rule for the calls: active = growth percent below 10; inactive = the rest.
Thanks in advance; please answer with one of these: active, inactive

Which outcome was entered for the molecule COc1c(F)ccc(C(=O)Nc2ccc3nc(NC(=O)C4CCCN(S(=O)(=O)c5ccc(Br)c(F)c5)C4)sc3c2)c1F (stereo unspecified) in this test?
inactive

Which outcome was entered for the molecule N#Cc1c(-c2ccccc2Cl)cc(-c2ccc3ccccc3c2)[nH]c1=O in this test?
inactive

Which outcome was entered for the molecule Cc1ccc(C(=O)C(c2c[nH]c3ccccc23)c2c[nH]c3ccccc23)cc1 in this test?
inactive

Which outcome was entered for the molecule COc1ccc(-c2nnc3ccc(N/N=C/c4ccc(C)cc4)nn23)cc1 in this test?
inactive

Which outcome was entered for the molecule COc1ccc(/C=C/c2n(Cc3ccc4ccccc4c3)c3ccccc3[n+]2Cc2ccc3ccccc3c2)cc1 in this test?
active

Which outcome was entered for the molecule CCCCCCn1c(O)c(N=Nc2nc(-c3cc4ccccc4oc3=O)cs2)c2ccccc21 in this test?
inactive

Which outcome was entered for the molecule Cc1ccc2c(c1)nc(-c1ccccc1)n2CC(=O)N=Nc1c(O)[nH]c2ccc(Br)cc12 in this test?
active

Which outcome was entered for the molecule CCN(CC)c1ccc(/C=N/Nc2nc(-c3ccc(Br)cc3)cs2)c(O)c1 in this test?
inactive

Which outcome was entered for the molecule COc1ccc(-c2nc3cc(C)ccc3n2CC(=O)N=Nc2c(O)[nH]c3ccc(OC)cc23)cc1 in this test?
active

Which outcome was entered for the molecule CC1[C@H]2[C@H](C[C@H]3[C@@H]4CC=C5c6sc(Nc7ccccc7F)nc6CC[C@]5(C)[C@H]4CC[C@@]32C)O[C@]12CC[C@@H](C)CO2 (stereo partly specified) in this test?
active

Which outcome was entered for the molecule CCCCCCCCc1ccc(S(=O)(=O)Nc2ccc(CC)cc2C(=O)O)cc1 in this test?
inactive

Which outcome was entered for the molecule COc1ccc(CCC2c3c(cc4c(c3OC)OCO4)CCN2C)cc1 (stereo unspecified) in this test?
active

Which outcome was entered for the molecule O=C(/C=C/c1cccc(OCc2ccc(F)cc2)c1)c1nc2ccccc2[nH]1 in this test?
inactive

Which outcome was entered for the molecule COc1cc2oc(-c3cccc(C(=O)Nc4ccc(Cl)cc4)c3)cc(=O)c2c(OCCNC(=O)[C@@H](N)CCC(=O)O)c1OC in this test?
inactive

Which outcome was entered for the molecule COc1cc(-c2cc(-c3cccc(OCC(=O)O)c3)[nH]c(=O)c2C#N)cc(OC)c1OC in this test?
inactive

Which outcome was entered for the molecule COc1ccc(C(=O)/C=C/c2cccc(Cl)c2Cl)cc1S(N)(=O)=O in this test?
inactive

Which outcome was entered for the molecule COc1cc(C2CC(c3cc(OC)c(OC)c(OC)c3)=NN2c2ccccc2)ccc1OCc1ccc(C)cc1 (stereo unspecified) in this test?
inactive

Which outcome was entered for the molecule Cc1cc2c(cc1Cl)C(=O)/C(=C/c1ccc(F)cc1)O2 in this test?
inactive

Which outcome was entered for the molecule Cn1cc(-c2cc(N)n3nc(-c4c[nH]c5ccccc45)cc3n2)c2cc(Br)cnc21 in this test?
active

Which outcome was entered for the molecule NS(=O)(=O)c1ccc(-n2cc(-c3cccc(NC(=O)c4cc(N5CCOCC5)cc(C(F)(F)F)c4)c3)nn2)cc1 in this test?
inactive

Which outcome was entered for the molecule COc1ccc2c(c1)c(-c1cc(N)n3nc(-c4cn(C)c5ccccc45)cc3n1)cn2C in this test?
active

Which outcome was entered for the molecule O=C(NN1C(=O)/C(=C/C=C/c2ccc([N+](=O)[O-])o2)SC1=S)c1ccc(Cl)cc1 in this test?
active

Which outcome was entered for the molecule Cc1cc(=O)oc2cc(OCCCOc3ccc(/C=C/C(=O)Nc4ccccc4N)cc3)ccc12 in this test?
active

Which outcome was entered for the molecule CN(C)CCOc1ccc(C(=O)C2[C@H](c3ccc(Cl)cc3)[C@@H](c3ccccc3)NC23C(=O)Nc2ccccc23)cc1 (stereo partly specified) in this test?
inactive

Which outcome was entered for the molecule CC(=O)Nc1ccc(C(=O)NC(=S)Nc2ccc(S(N)(=O)=O)cc2)cc1 in this test?
inactive

Which outcome was entered for the molecule Cc1ccc(-c2nc(Nc3ccccc3S(N)(=O)=O)c3ccccc3n2)cc1 in this test?
inactive

Which outcome was entered for the molecule CC(=O)OC[C@@]1(C)C2CC[C@]3(C)C(CC=C4C5CC(C)(C)CC[C@]5(C(=O)Nc5ccc(Br)cc5)CC[C@]43C)[C@@]2(C)C[C@@H](OC(C)=O)[C@@H]1OC(C)=O (stereo partly specified) in this test?
inactive

Which outcome was entered for the molecule COCOc1cc2oc(C(=O)N[C@@H](Cc3ccccc3)C(O)C(=O)NCc3ccccc3)c(C)c(=O)c2cc1OCOC (stereo partly specified) in this test?
inactive

Which outcome was entered for the molecule CCN(CC)c1ccnc(CNCCSC(c2ccccc2)(c2ccccc2)c2ccc(C)cc2)c1 in this test?
active

Which outcome was entered for the molecule N#Cc1c(-c2ccc(Cl)cc2)nc2n[nH]c(-c3ccc(Cl)cc3)c2c1-c1cccs1 in this test?
inactive

Which outcome was entered for the molecule COc1ccc(/C=C2\C(=N)N=C(SCc3nc4ccccc4[nH]3)NC2=O)cc1 in this test?
inactive

Which outcome was entered for the molecule CCCS(=O)(=O)N1CCCC(C(=O)Nc2nc3ccc(NC(=O)c4ccc(F)c(OC)c4F)cc3s2)C1 (stereo unspecified) in this test?
inactive

Which outcome was entered for the molecule CC(C)CSc1nc(NCCc2c[nH]c3ccccc23)c(C#N)c(-c2ccccc2)n1 in this test?
inactive

Which outcome was entered for the molecule COc1ccc(NC(=O)c2sc3nc(C(C)C)ccc3c2N)cc1 in this test?
inactive

Which outcome was entered for the molecule CCCCSc1nc(Nc2ccc(S(N)(=O)=O)cc2)c(C#N)c(-c2ccc(Cl)cc2)n1 in this test?
inactive

Which outcome was entered for the molecule COc1ccc(-c2nc3ccc(C(=O)NN4C(=O)c5ccc([N+](=O)[O-])cc5C4=O)cc3[nH]2)cc1 in this test?
inactive
